Tested System: T1, cynomolgus CGRP receptor (cynoCRLR + cynoRAMP1) (cynomolgus monkey)
T1 chain 1: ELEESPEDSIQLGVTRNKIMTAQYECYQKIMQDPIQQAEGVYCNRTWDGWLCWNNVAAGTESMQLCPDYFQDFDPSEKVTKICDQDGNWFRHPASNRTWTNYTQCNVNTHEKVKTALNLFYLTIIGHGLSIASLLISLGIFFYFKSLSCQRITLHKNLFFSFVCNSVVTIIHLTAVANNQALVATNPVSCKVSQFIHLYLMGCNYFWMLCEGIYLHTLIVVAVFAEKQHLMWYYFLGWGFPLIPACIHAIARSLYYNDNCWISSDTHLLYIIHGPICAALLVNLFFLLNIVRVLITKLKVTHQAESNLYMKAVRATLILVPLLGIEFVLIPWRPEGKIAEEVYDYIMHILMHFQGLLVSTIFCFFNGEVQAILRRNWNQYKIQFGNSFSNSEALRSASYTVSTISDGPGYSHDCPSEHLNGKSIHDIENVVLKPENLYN
T1 chain 2: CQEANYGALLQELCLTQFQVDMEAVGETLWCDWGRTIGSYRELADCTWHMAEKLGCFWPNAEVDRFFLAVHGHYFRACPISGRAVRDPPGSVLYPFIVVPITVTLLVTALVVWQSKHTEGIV
Assay Method Text: cell-based or functional assay
Measured cAMP assay IC50 values are reported for all entries that follow.
Numeric only. Scale: nM

Value lookup for cAMP assay IC50; key = 9D4 (antibody, human IgG2, lambda, V domains shown, also called 09D4; 09D4.2) VH: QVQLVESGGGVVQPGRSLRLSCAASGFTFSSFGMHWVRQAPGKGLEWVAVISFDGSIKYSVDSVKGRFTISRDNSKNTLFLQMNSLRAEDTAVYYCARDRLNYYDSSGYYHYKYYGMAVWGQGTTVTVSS VL: QSVLTQPPSVSAAPGQKVTISCSGSSSNIGNNYVSWYQQFPGTAPKLLIYDNNKRPSGIPDRFSGSKSGTSATLGITGLQTGDEADYYCGTWDSRLSAVVFGGGTKLTVLG 2.46

Cool, now 12G8 (antibody, human IgG2, lambda, V domains shown, also called 12G8.2) VH: QVQLVESGGGVVQPGRSLRLSCAASGFTFSSFGMHWVRQAPGKGLEWVAVISFDGSIKYSVDSVKGRFTISRDNSKNTLFLQMNSLRAEDTAVYYCARDRLNYYDSSGYYHYKYYGLAVWGQGTTVTVSS VL: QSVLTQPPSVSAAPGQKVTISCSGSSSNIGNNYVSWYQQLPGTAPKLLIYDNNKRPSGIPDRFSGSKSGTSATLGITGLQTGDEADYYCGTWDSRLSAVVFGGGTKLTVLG 2.74

# iterate: 4E4 (antibody, human IgG2, lambda, V domains shown, also called 04E4; 04E4.2) VH: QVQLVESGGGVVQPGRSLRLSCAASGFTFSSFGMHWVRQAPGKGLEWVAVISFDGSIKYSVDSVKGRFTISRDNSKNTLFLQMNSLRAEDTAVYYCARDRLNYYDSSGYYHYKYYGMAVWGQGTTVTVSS VL: QSVLTQPPSVSAAPGQKVTISCSGSSSNIGNNYVSWYQQLPGTAPKLLIYDNNKRPSGIPDRFSGSKSGTSTTLGITGLQTGDEADYYCGTWDSRLSAVVFGGGTKLTVLG 3.52

How about this binder: 1E11 (antibody, human IgG2, lambda, V domains shown, also called 01E11; 01E11.2) VH: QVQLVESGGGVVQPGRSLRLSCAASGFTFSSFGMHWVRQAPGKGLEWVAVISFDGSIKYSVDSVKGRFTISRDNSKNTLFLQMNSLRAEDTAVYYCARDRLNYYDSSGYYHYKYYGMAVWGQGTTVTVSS VL: QSVLTQPPSVSEAPGQKVTISCSGSSSNIGNNYVSWYQQLPGTAPKLLIYDNNKRPSGIPDRFSGSKSGTSATLGITGLQTGDEADYYCGTWDSRLSAVVFGGGTKLTVLG 2.79

Okay, and 3C8 (antibody, human IgG2, kappa, V domains shown) VH: QVQLVESGGGVVQPGRSLRLSCAASGFTFSSYGMHWVRQAPGKGLEWVAVISYDGSHESYADSVKGRFTISRDISKNTLYLQMNSLRAEDTAVYFCARERKRVTMSTLYYYFYYGMDVWGQGTTVTVSS VL: DIILAQTPLSLSVTPGQPASISCKSSQSLLHSAGKTYLYWYLQKPGQPPQLLIYEVSNRFSGVPDRFSGSGSGTDFTLKISRVEAEDVGIYYCMQSFPLPLTFGGGTKVEIKR ? 5.32

Please answer likewise for 5F5 (antibody, human IgG2, kappa, V domains shown, also called 05F5; 05F5.1) VH: QVQLVESGGGVVQPGRSLRLSCAASGFTFSSYGMHWVRQAPGKGLEWVAVISYDGSHESYADSVKGRFTISRDISKNTLYLQMNSLRAEDTAVYFCARERKRVTMSTLYYYFYYGMDVWGQGTTVTVSS VL: DIILTQTPLSLSVTPGQPASISCKSSQSLLHSDGKTYLYWYLQKPGQPPQLLIYEVSNRFSGEPDRFSGSGSGTDFTLKISRVEAEDVGTYYCMQSFPLPLTFGGGTKVEIKR 4.78
